Below, each of the compounds is paired with its reported Ratio value.
Organism: Cavia porcellus
Test: Ratio of Kinactivation to KI of guinea pig recombinant liver TGase expressed in Escherichia coli
Just the number in mM⁻¹ min⁻¹, nothing appended.

MOL_SMILES | MEASURED_METRIC | UNIT_ANNOTATION | READOUT_VALUE
COC(=O)CNC(=O)[C@H](CCCN1C(=O)C=CC1=O)NC(=O)OCc1ccccc1 | Ratio | mM⁻¹ min⁻¹ | 0.43

(Q) Which Ratio reading was recorded for the compound `O=C(N[C@@H](CCN1C(=O)C=CC1=O)C(=O)OCc1ccccc1)OCc1ccccc1` ?
(A) 0.67

(Q) For `O=C(N[C@@H](CCCCN1C(=O)C=CC1=O)C(=O)OCc1ccccc1)OCc1ccccc1` then?
(A) 17.1

(Q) For `O=C(N[C@@H](CCCN1C(=O)C=CC1=O)C(=O)OCc1ccccc1)OCc1ccccc1` then?
(A) 6.26

(Q) For `COC(=O)CNC(=O)[C@H](CCCCN1C(=O)C=CC1=O)NC(=O)OCc1ccccc1` then?
(A) 0.83

(Q) For `COC(=O)CNC(=O)[C@H](CCN1C(=O)C=CC1=O)NC(=O)OCc1ccccc1` then?
(A) 0.28
